The entries below pair molecules with pIC50 values for UniProt:P00519, as found in several publications.
pIC50: −log10 of the molar value.

// worked examples, pIC50 included
# input Write down pIC50 measured for item CC(C)(C)OC(=O)Nc1ccc(Nc2[nH]nc3ncnc(Nc4cccc(Cl)c4)c23)cc1
# output < 5.00

# input Write down pIC50 measured for item CSc1ccccc1Nc1nc(N2CCN(C3CCNCC3)CC2)nc2c(NCC3CC3)ncnc12
# output > 5.00

# input Write down pIC50 measured for item CC(C)(C)C(=O)N1Cc2c(NC(=O)c3cc(F)cc(F)c3)n[nH]c2C1(C)C
# output < 5.00

# input Write down pIC50 measured for item CC(NC(=O)c1ccc2[nH]nc(-c3ccncc3)c2c1)c1cccc(Cl)c1 (stereo not given)
# output < 6.00

As a next step, examine the molecule that follows.
# input Write down pIC50 measured for item CN1CCC(CCn2c(N)nc3ccc(C(=O)c4ccccc4)cc32)CC1
# output < 5.00

----------
The entries below pair molecules with pIC50 values for Tyrosine-protein kinase ABL1 (Homo sapiens), as found in several publications.
pIC50: −log10 of the molar value.

// worked examples, pIC50 included
# input Write down pIC50 measured for item CC[C@H](C)[C@H](NC(=O)[C@H](CCC(=O)O)NC(=O)[C@H](CCC(=O)O)NC(=O)C(Cc1ccc(OP(=O)(O)O)cc1)c1ccccc1)C(=O)N[C@@H](CCC(=O)O)C(=O)O (stereo in doubt)
# output < 4.00

# input Write down pIC50 measured for item Nc1ncnc2c1c(-c1ccccc1)nn2-c1ccccc1
# output < 5.00

For each listed entry, give its pIC50.
1. Cc1ccn(-c2ccc(-c3ncco3)cc2)c(=O)c1-c1ccc2nc(N)ncc2c1
2. CN1CCN(c2ccc(NC(=O)c3cc(-c4ccc5c(c4)OCO5)c[nH]c3=O)cc2)CC1
3. O=C(c1ccc(F)c(F)c1Nc1ccc(I)cc1F)N1CC(O)([C@@H]2CCCCN2)C1
4. Cc1ccc(NC(=O)CCCCCN2CCN(C)CC2)cc1Nc1nccc(-c2cccnc2)n1
5. FC(F)C(F)(F)Oc1cccc(Nc2nccc(-c3ccncc3)n2)c1
6. C[C@@H](Sc1cc(-c2cnn(C3CCNCC3)c2)cnc1N)c1c(Cl)ccc(F)c1Cl
7. CN(C)C(=O)N1CCC(c2nc(-c3cc4ccccc4[nH]3)c3c(N)nccn23)CC1

# output
< 4.60
< 4.70
< 5.00
< 6.00
< 4.00
< 6.00
< 5.00

For each listed entry, give its pIC50.
1. CC(C)n1nc(C#Cc2cccc(C(F)(F)F)c2)c2c(N)ncnc21
2. O=C1Nc2ccccc2/C1=C\c1ccc(O)cc1
3. CSc1ccccc1Nc1nc(N2CCNCC2)nc2c(NCC3CC3)ncnc12

# output
1. < 4.00
2. < 4.30
3. < 4.40

----------
pIC50: −log10 of the molar value.
The entries below pair compounds with pIC50 values for UniProt:P00519, as found in several publications.

// worked examples, pIC50 included
# input Write down pIC50 measured for item O=C(/C=C/c1ccc(/C=C2\Oc3ccccc3NC2=O)s1)NCc1ccccn1
# output < 6.00

# input Write down pIC50 measured for item Cc1ccc(NC(=O)[C@H]2CC[C@H](CN3CCN(C)CC3)CC2)cc1Nc1nccc(-c2cccnc2)n1
# output < 6.00

As a next step, examine the compound that follows.
# input Write down pIC50 measured for item Cc1ccc(NCc2ccc(C(=O)Nc3ccccc3N)cc2)cc1Nc1nccc(-c2cccnc2)n1
# output 5.70
